target: Glucose transporter (Leishmania mexicana) (UniProt O61059); experiment: ST_JUDE_LEISH: Cytotoxicity at 2uM final concentration against transgenic Leishmania Mexicana promastigotes LmGT2 that are glucose transport deficient and complemented with the L. Mexicana glucose transporter 2. Activity is measured by DNA content using SYBR green in vitro; type: functional
Catalogue of inhibition readings, one per entry.

Molecule | Assay System | inhibition
Nc1nc(N)c2c(ccc3c2ccn3CCCC2CCCNC2)n1 (stereo unspecified) | Glucose transporter (Leishmania mexicana) (UniProt O61059) | 1.44%
O=C(NC1CCN(Cc2ccccc2)CC1)c1ccc(-c2nc3cc4ccccc4cc3[nH]2)s1 | Glucose transporter (Leishmania mexicana) (UniProt O61059) | 4.03%
CC(=O)c1ccc(NC(=O)C2c3ccccc3C(=O)N(CC(C)C)C2c2cccs2)cc1 (stereo unspecified) | Glucose transporter (Leishmania mexicana) (UniProt O61059) | 0.34%
O=C(CCC1CCCCC1=O)c1ccccc1 (stereo unspecified) | Glucose transporter (Leishmania mexicana) (UniProt O61059) | 1.52%
O=C(/C=C/c1ccc(Cl)c(Cl)c1)NCCCCCN1CCC(CCNC(=O)Cc2ccc(Cl)cc2)CC1 | Glucose transporter (Leishmania mexicana) (UniProt O61059) | 4.06%
COCCNCC(O)Cn1c2ccc(Cl)cc2c2cc(Cl)ccc21 (stereo unspecified) | Glucose transporter (Leishmania mexicana) (UniProt O61059) | -0.53%
CCNC(=O)Nc1ccc(-c2ccc(-c3nc4cccc(C)c4[nH]3)s2)cc1 | Glucose transporter (Leishmania mexicana) (UniProt O61059) | 7.95%
N#Cc1cccc(C(=O)Nc2ccc(-c3cccc(CN4CCC(O)CC4)c3)cc2)c1 | Glucose transporter (Leishmania mexicana) (UniProt O61059) | -0.04%
NS(=O)(=O)Cc1cccc(-c2ccnc3ccc(-c4cccc(S(N)(=O)=O)c4)cc23)c1 | Glucose transporter (Leishmania mexicana) (UniProt O61059) | 1.72%
CCOc1cc(Cc2cnc(N)nc2N)cc(OCC)c1-n1cccc1 | Glucose transporter (Leishmania mexicana) (UniProt O61059) | 1.36%
CC(C)CC1(C(=O)OC(C)(C)C)CC(C(=O)OC(C)(C)C)C(c2cccs2)N1C(=O)c1ccc(C(C)(C)C)cc1 (stereo unspecified) | Glucose transporter (Leishmania mexicana) (UniProt O61059) | 2.67%
CN(C)CCOc1ccc(-c2cc(-c3ccnc(N)n3)c(-c3ccc(Cl)c(O)c3)o2)cc1 | Glucose transporter (Leishmania mexicana) (UniProt O61059) | 2.71%
CCOC(=O)c1ccc(NC(=O)Nc2ccc(-c3ccc(-c4nc5cc(C(F)(F)F)ccc5[nH]4)cc3)cc2)cc1 | Glucose transporter (Leishmania mexicana) (UniProt O61059) | 1.54%
COc1cc2nccc(Nc3ccc4c(cnn4Cc4cccc(F)c4)c3)c2cc1OC | Glucose transporter (Leishmania mexicana) (UniProt O61059) | 1.56%
CC(CNC(=O)[C@H]1CNCCN1C(=O)CCCc1ccccc1)c1ccccc1 (stereo partly specified) | Glucose transporter (Leishmania mexicana) (UniProt O61059) | -0.23%
CCC1CCc2cc(N)cc(-c3nc4c(c(C)nn4CC)c(=O)[nH]3)c2O1 (stereo unspecified) | Glucose transporter (Leishmania mexicana) (UniProt O61059) | 3.42%

* * *

Parameter inhibition: see the listing below.
target: Solute carrier family 2, facilitated glucose transporter member 1 (Homo sapiens) (UniProt P11166); experiment: ST_JUDE_LEISH: Cytotoxicity at 2uM final concentration against transgenic Leishmania Mexicana promastigotes LmGLUT1 that are glucose transport deficient and complemented with the human glucose transporter GLUT1. Activity is measured by DNA content using SYBR green in vitro; assay type: functional
Sequence (P11166 whole entry): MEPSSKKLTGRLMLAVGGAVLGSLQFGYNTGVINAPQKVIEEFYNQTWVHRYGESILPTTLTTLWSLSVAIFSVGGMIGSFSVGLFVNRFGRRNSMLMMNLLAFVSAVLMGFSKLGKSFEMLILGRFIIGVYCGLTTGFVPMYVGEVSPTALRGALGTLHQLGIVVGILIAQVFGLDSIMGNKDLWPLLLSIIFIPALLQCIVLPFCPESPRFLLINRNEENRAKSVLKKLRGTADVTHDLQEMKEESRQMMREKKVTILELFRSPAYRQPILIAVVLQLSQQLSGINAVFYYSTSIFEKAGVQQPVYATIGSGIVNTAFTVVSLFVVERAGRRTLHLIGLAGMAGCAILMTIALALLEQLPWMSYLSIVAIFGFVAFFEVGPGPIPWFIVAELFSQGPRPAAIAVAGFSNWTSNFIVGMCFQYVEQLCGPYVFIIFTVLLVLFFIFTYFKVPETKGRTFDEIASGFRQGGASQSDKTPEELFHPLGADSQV

Compound | inhibition / %
O=C(NCCCCN1CCC(c2cccc3ccccc23)CC1)c1ccc(NC(=O)c2ccc(Cl)cc2)cc1 | 1.07
CN(C)CC(O)COc1ccc(Nc2ncc([N+](=O)[O-])c(Nc3ccccc3O)n2)cc1 (configuration not stated) | 2.66
O=C1COc2ccccc2N1C/C=C(\CN1CCC(c2ccccc2)CC1)c1cc(Cl)cc(Cl)c1 | 1.77
O=C(NCCCN1CCOCC1)c1ccc(-c2cccc(NC(=O)c3ccc(Cl)c(Cl)c3)c2)cc1 | 2.04
CCN(CC)CCNc1ccnc2[nH]c3ccc([N+](=O)[O-])cc3c12 | 3.68
CCCCCCN1CCC(NCc2ccc(OCCN3CCCC3)cc2)CC1 | -1.34
CC1(C)N=C(N)N=C(N)N1c1cccc(Cl)c1 | 0.67
O=C(Nc1cccc(CN2CCCN(Cc3ccc(O)cc3)CC2)c1)c1ccc2ccccc2c1 | 4.27
Cc1ccc(-c2cc(C(=O)Nc3ccc(S(=O)(=O)N4CCCCC4C)cc3)n[nH]2)c(O)c1 (configuration not stated) | -0.81
COc1ccc(OC)c2c1CCN(CCN1CCC(C(=O)Nc3ccc(C(=O)Nc4ccc(Cl)cc4)cc3)CC1)C2 | 1.55
CC(C)(C)c1ccc(CN2CCC(CNC(=O)c3cc(-c4cccc(Cl)c4)cs3)C2)cc1 (configuration not stated) | 16.7
Brc1ccc(Nc2nc(NCc3ccccc3)c3ccccc3n2)cc1 | 22.6
Cc1ccc(NC(=O)Nc2ccc(Cl)cc2)cc1-c1ccc(C(=O)Nc2ccncc2)cc1 | 2.15
CCc1cn(C)c2c(N3CCCC3=O)cc(C(=O)N[C@@H](Cc3ccccc3)[C@H](O)CNC(C)(C)c3cccc(OC)c3)cc12 | 4.6
CN(Cc1cccc(O)c1)C1CCN(c2cc(NC(=O)c3ccc(F)cc3)ccn2)CC1 | 2.02
CCOc1ccc2nc(NC(=O)c3csnn3)sc2c1 | 4.69
Cc1cc(F)ccc1Nc1nc(N(C)c2ccccc2)c2cccc(O)c2n1 | 12.3
COc1cccc(C(=O)Nc2ccc(Oc3ccc(Cl)cc3)cc2)c1 | -1.17
Cc1nc(-c2cccc3c(NC(=O)Nc4ccc5nccc(N6CCN(C)CC6)c5c4)cccc23)no1 | 4.28
N=C(N)NN=CC(=O)Nc1ccc(Cl)c(C(F)(F)F)c1 | 8.87
Cc1nn(C)cc1C(C)Nc1nncc(-c2ccc(C(F)(F)F)cc2)n1 (configuration not stated) | 2.34
CC(=O)Nc1nc(C(=O)Nc2cccc(-c3ccc(-c4nc5cc(F)ccc5[nH]4)cc3)c2)cs1 | 2.38

* * *

target: Hexose transporter 1 (Plasmodium falciparum) (UniProt O97467); assay: ST_JUDE_LEISH: Cytotoxicity at 2uM final concentration against transgenic Leishmania Mexicana promastigotes LmPfHT that are glucose transport deficient and complemented with the Plasmodium falciparum hexose transporter. Activity is measured by DNA content using SYBR green in vitro; type: functional

Compound | inhibition [%]
Nc1nc(N)c2c(ccc3c2ccn3CCCF)n1 | 5.24
Cc1cccc2nc(-c3ccc(-c4cccc(CN5CCCC(N)C5)c4)s3)[nH]c12 (stereo not drawn) | 11.2
COc1ccccc1NC(=O)Nc1cccc(-c2cccc(-c3nc4cccc(C)c4[nH]3)c2)c1 | 0.52
CCCCCCNc1cc(C)nc2ccc(OC)cc12 | 11.4
Nc1nc(N)c2c(ccc3nn(Cc4cccnc4)cc32)n1 | 5.44
C[C@@H](CC1CCCCC1)OC(=O)N(C)[C@@H]1CCN(C#N)C1 | 10.3
COc1ccc(C2CC(c3cccs3)=NN2C(=O)c2ccco2)cc1OC (stereo not drawn) | 4.8
O=C(NCCCCN1CCC(c2c[nH]c3ccccc23)CC1)c1sc(-c2ccc(C(F)(F)F)cc2)nc1CO | 8.88

* * *

target: Hexose transporter 1 (Plasmodium falciparum); assay: ST_JUDE_LEISH: Cytotoxicity at 2uM final concentration against transgenic Leishmania Mexicana promastigotes LmPfHT that are glucose transport deficient and complemented with the Plasmodium falciparum hexose transporter. Activity is measured by DNA content using SYBR green in vitro; format: functional
Known inhibition of a selection of compounds
Measured Property: inhibition

Compound | Reported
CC(C)(C)C(Cn1ccnc1)NCc1c[nH]nc1-c1ccc(-c2ccccc2)cc1 (centres undefined) | 16.9%
COc1ccc(CNc2ccnc3cc(OC)ccc23)cc1 | 12.2%
Cc1cc(NC(=O)c2cccs2)ccc1OC1CCN(Cc2ccccc2)C1 (centres undefined) | -0.44%
CCCNCc1ccc(-c2ccc(CN(C(=O)c3nn(-c4ccccc4)nc3C)C(C)CN(C)C)cc2)nc1 (centres undefined) | 0.07%

* * *

target: Glucose transporter (Leishmania mexicana) (UniProt O61059); assay: ST_JUDE_LEISH: Cytotoxicity at 2uM final concentration against transgenic Leishmania Mexicana promastigotes LmGT2 that are glucose transport deficient and complemented with the L. Mexicana glucose transporter 2. Activity is measured by DNA content using SYBR green in vitro; assay type: functional

Compound | inhibition
CN(C)C(=O)CC(=O)NCc1c(Cl)cccc1Cl | 2%
OC(CNCc1ccccc1OCc1ccccc1)c1cccc(Br)c1 (stereo not given) | 2.24%
OC1CCCN(Cc2cccc(-c3ccc(-c4nc5cc(F)ccc5[nH]4)cc3)c2)C1 (stereo not given) | 4.6%
CNC(=O)c1cncc(/C=C/c2ccccc2S(N)(=O)=O)c1 | -0.59%
CCNc1cc(C(=O)N[C@@H](Cc2ccccc2)[C@H](O)CNCCC(C)(C)C)c(F)c(N2CCCCS2(=O)=O)c1 | 0.33%
